From: ChEMBL document CHEMBL1135589

# Measurement target: GABA-A receptor; anion channel
# Experiment notes: Ability to inhibit [3H]-Ro- 15-1788 binding to Gamma-aminobutyric acid A receptor alpha in vitro in rat cortical membranes
pKi: −log10 of the molar value.
Outcome measure: pKi

QUERY: // pKi lookup, key: `Cc1cccc2c(=O)cc(-c3ccccc3)oc12`
RESULT: < 5.77

QUERY: // pKi lookup, key: `Cc1cc(C)cc(-c2cc(=O)c3cc(C)ccc3o2)c1`
RESULT: < 5.82

QUERY: // pKi lookup, key: `COC(=O)c1cc(N)cc(-c2cc(=O)c3cc(C)ccc3o2)c1`
RESULT: < 5.72

Moving on to the next molecule.
QUERY: // pKi lookup, key: `Cc1ccc2oc(-c3cc(C(=O)O)cc(C(=O)O)c3)cc(=O)c2c1`
RESULT: < 5.80

---

# Measurement target: GABA-A receptor; anion channel
# Experiment notes: Ability to inhibit [3H]-Ro- 15-1788 binding to Gamma-aminobutyric acid A receptor alpha in vitro in rat cortical membranes
Outcome measure: Ki

Some compounds with known Ki results, for comparison:
QUERY: // Ki lookup, key: `COC(=O)c1cc(O)cc(-c2cc(=O)c3cc(C)ccc3o2)c1`
RESULT: > 1600 nM

QUERY: // Ki lookup, key: `COC(=O)c1cc(CO)cc(-c2cc(=O)c3cc(C)ccc3o2)c1`
RESULT: > 1500 nM

QUERY: // Ki lookup, key: `Cc1ccc2oc(-c3cc(C(=O)O)cc([N+](=O)[O-])c3)cc(=O)c2c1`
RESULT: > 1700 nM

QUERY: // Ki lookup, key: `Cc1ccc2oc(-c3cc(O)cc(C(=O)O)c3)cc(=O)c2c1`
RESULT: > 1600 nM

Moving on to the next compound.
QUERY: // Ki lookup, key: `COC(=O)c1cc(C(=O)OC)cc(-c2cc(=O)c3cc(C)ccc3o2)c1`
RESULT: > 1600 nM
